All figures here come from ChEMBL document CHEMBL1157156.

- Test system: Trichoderma viride
- MEASUREMENT DESCRIPTION: Antimicrobial activity against Trichoderma viride IAM5061 by serial dilution technique
- Assay type: functional
Entries and their MFC

Ask: Request body: readout MFC, system Trichoderma viride, query `C=C[C@]1(C)C[C@H](O)[C@@H]2[C@H](OC(=O)[C@H]2C)[C@H]1C(=C)CO` . Return the value.
Result: 0.7 µM

Ask: MFC of `C=C[C@]1(C)C[C@H](OC(=O)C(=C)CCO)[C@@H]2[C@H](OC(=O)[C@H]2C)[C@H]1C(=C)CO` on Trichoderma viride?
Result: 0.2 µM

Ask: Reported MFC for Trichoderma viride, given C[C@@H]1C(=O)O[C@@H]2C3[C@H](C=O)CCC[C@]3(C)C[C@H](O)[C@@H]12 (stereo partly specified) ?
Result: 0.4 µM

Next:
Ask: Identify the measured MFC of `C[C@@H]1C(=O)O[C@H]2[C@H]1[C@@H](O)C[C@]1(C)[C@@H]2[C@@H](C=O)CC[C@H]1O` for Trichoderma viride.
Result: 0.7 µM

Ask: State its MFC on Trichoderma viride: `C/C1=C\CC/C(CO)=C/[C@H]2OC(=O)[C@@H](C)[C@@H]2[C@@H](O)C1`
Result: 0.7 µM

Ask: Query MFC on Trichoderma viride for Clc1ccc(COC(Cn2ccnc2)c2ccc(Cl)cc2Cl)c(Cl)c1 (stereo unspecified)
Result: 4 µM

----------
- Test system: Aspergillus flavus
- MEASUREMENT DESCRIPTION: Antimicrobial activity against Aspergillus flavus ATCC 9643 by serial dilution technique
- Format: functional
Friendly reminder: MFC below 0.4 µM is 1.0, at or above is 0.0.

Ask: Strictly below 0.4 µM in MFC? `C/C1=C\CC/C(CO)=C/[C@H]2OC(=O)[C@@H](C)[C@@H]2[C@@H](O)C1`
Result: 0.0

Ask: # strict comparison: is reported MFC < 0.4 µM? input = `C[C@@H]1C(=O)O[C@H]2[C@H]1[C@@H](O)C[C@]1(C)[C@@H]2[C@@H](C=O)CC[C@H]1O`
Result: 1.0

Ask: Confirm or reject: MFC of `C=C[C@]1(C)C[C@H](O)[C@@H]2[C@H](OC(=O)[C@H]2C)[C@H]1C(=C)CO` lies strictly below 0.4 µM
Result: 0.0

Ask: # TODO verify MFC < 0.4 µM strictly for this compound: `C=C[C@]1(C)C[C@H](OC(=O)C(=C)CCO)[C@@H]2[C@H](OC(=O)[C@H]2C)[C@H]1C(=C)CO`
Result: 1.0

We next turn to a different compound, shown below.
Ask: Is the reported MFC for Clc1ccc(COC(Cn2ccnc2)c2ccc(Cl)cc2Cl)c(Cl)c1 (stereo unspecified) strictly below 0.4 µM?
Result: 0.0

----------
- System: Bacillus subtilis
- MEASUREMENT DESCRIPTION: Antimicrobial activity against Bacillus subtilis ATCC 10907 by serial dilution technique
- Assay type: functional
Hi! Just check whether MIC is below 0.8 µM. Below gives Condition met, equal or above gives Condition not met.

Ask: Just wondering, is MIC of `C=C[C@]1(C)C[C@H](O)[C@@H]2[C@H](OC(=O)[C@H]2C)[C@H]1C(=C)CO` below 0.8 µM?
Result: Condition not met

Ask: Check if MIC falls below 0.8 µM for C[C@@H]1C(=O)O[C@@H]2C3[C@H](C=O)CCC[C@]3(C)C[C@H](O)[C@@H]12 (stereo partly specified) .
Result: Condition met

Ask: hey, is MIC for `C=C[C@]1(C)C[C@H](OC(=O)C(=C)CCO)[C@@H]2[C@H](OC(=O)[C@H]2C)[C@H]1C(=C)CO` lower than 0.8 µM or not?
Result: Condition met

Next:
Ask: A record lists `C[C@@H]1C(=O)O[C@H]2[C@H]1[C@@H](O)C[C@]1(C)[C@@H]2[C@@H](C=O)CC[C@H]1O` . Is its MIC below 0.8 µM?
Result: Condition met
